Tested on: MOLM/16
Assay: area under dose-response curve (cell viability) (AUC (arbitrary, % viability x log concentration)); higher = less sensitive (more viable)
Conditions: 4 days
Counter-ions that a name gives are not always drawn.
# area under dose-response curve per entry
Would you mind answering with just the numeric figure?

Use the examples below as a reference point.
> print(dat)
                                   compound                measurement.kind  measured
1  O=C(c1cc(Cc2n[nH]c(=O)c3ccccc23)ccc1F)N1CCN(C(=O)C2CC2)CC1 [Olaparib]  area under dose-response curve       575
2  CCc1c2c(nc3ccc(OC(=O)N4CCC(N5CCCCC5)CC4)cc13)-c1cc3c(c(=O)n1C2)COC(=O)[C@]3(O)CC [Irinotecan HCl]  area under dose-response curve       516
3  COc1cc2ncnc(Nc3ccc(F)c(Cl)c3)c2cc1OCCCN1CCOCC1 [Gefitinib]  area under dose-response curve       584
4  COc1ccc2c(c1)CCC1C2CCC2(C)C(NCCCCCCN3C(=O)C=CC3=O)CCC12 (stereo not drawn)  area under dose-response curve       632

The record that follows has no area under dose-response curve shown yet.
Hello, please tell me recorded area under dose-response curve for this one: CN[C@@H]1C[C@H]2O[C@@](C)([C@@H]1OC)n1c3ccccc3c3c4c(c5c6ccccc6n2c5c31)C(=O)NC4 [Staurosporine]
291
